# TARGET DESC: CCAAT/enhancer-binding protein beta (Homo sapiens)
# PROTOCOL NOTES: ATG_C_EBP_CIS: Attagene CIS-FACTORIAL HepG2 Assay for human CCAAT/Enhancer Binding Protein (C/EBP) beta (AID 2282927)
# RECORDED CONDITIONS: HepG2 Attagene cis-factorial transcription factor reporter; actives raise or lower the signal
Activity calls are given as the source filed them. The calls were made as follows: active = hit-call score of the fitted dose curve at least 0.9, where 1 is the maximum; inactive = score below 0.9.
Thanks in advance; please answer with one of these: 1 for active, 0 for inactive

Task item: Test call for this compound, please: "CCNC(=O)NC(=O)C(C#N)=NOC"
Reply: 0

Task item: Test call for this compound, please: "CN/C(=N\[N+](=O)[O-])NCc1cnc(Cl)s1"
Reply: 0

Task item: Test call for this compound, please: CCCCC(O)(Cn1cncn1)c1ccc(Cl)cc1Cl (stereo not drawn)
Reply: 0

---

# PROTOCOL NOTES: BSK_3C_uPAR: BioMAP Diversity Plus: 3C Assay for Urokinase-type plasminogen activator receptor (uPAR) Biomarker Activity (AID 2282998)
# RECORDED CONDITIONS: BioMAP 3C HUVEC, uPAR biomarker ELISA; actives raise or lower the signal
Calls of active or inactive are those of the source. The calls were made as follows: active = hit-call score of the fitted dose curve at least 0.9, where 1 is the maximum; inactive = score below 0.9.
Thanks in advance; please answer with one of these: active, inactive

Below, 5 compounds whose answers are already recorded.
# COMPOUND, ANSWER LABEL
rows = [
    ("CCOc1cc(C(C)(C)C)ccc1C1COC(c2c(F)cccc2F)=N1 (configuration not stated)", "active"),
    ("Cn1c(-c2ccccc2)cc(-c2ccccc2)[n+]1C", "active"),
    ("Clc1cccc(C(Cl)(Cl)Cl)n1", "inactive"),
    ("CCOC(=O)C(C)OC(=O)c1cc(Oc2ccc(C(F)(F)F)cc2Cl)ccc1[N+](=O)[O-] (configuration not stated)", "active"),
    ("Cc1cc(C)nc(Nc2ccccc2)n1", "inactive"),
]

Please turn your attention to the following entry.
Task item: Test call for this compound, please: "COP(=O)(OC)O/C(C)=C/C(=O)N(C)C"
Reply: inactive

---

# PROTOCOL NOTES: IUF_NPC4_neurite_length_120hr: Leibniz Research Institute for Environmental Medicine (IUF) 120-hour Neuronal Morphology Assay for Neurite Length (NPC4) (AID 2284302)
Calls of active or inactive are those of the source. The calls were made as follows: active = hit-call score of the fitted dose curve at least 0.9, where 1 is the maximum; inactive = score below 0.9.
ENDPOINT LABEL: AC50

Sample answers from the record:
# MOLECULE, AC50
records = [
    ("CO/N=C(/C1=NOCCO1)c1ccccc1Oc1ncnc(Oc2ccccc2Cl)c1F", "inactive"),
    ("CN/C(=N\\[N+](=O)[O-])NCc1cnc(Cl)s1", "10 µM (active)"),
    ("CC1(C)C(C=C(Cl)Cl)C1C(=O)OC(C#N)c1cccc(Oc2ccccc2)c1 (stereo not given)", "inactive"),
    ("CS(=O)(=O)c1ccc(C(=O)C2C(=O)CCCC2=O)c([N+](=O)[O-])c1", "0.203 µM (active)"),
    ("CCOP(=O)(OCC)Oc1nc(Cl)c(Cl)cc1Cl", "inactive"),
]

So, "C=C(C)CN(CC)c1c([N+](=O)[O-])cc(C(F)(F)F)cc1[N+](=O)[O-]" ? Its AC50 was inactive

So, CC(C)(C)C(=O)C(Oc1ccc(Cl)cc1)n1cncn1 (stereo not given) ? Its AC50 was inactive

So, "N#CN=C1SCCN1Cc1ccc(Cl)nc1" ? Its AC50 was inactive

So, "CCNC(=O)NC(=O)C(C#N)=NOC" ? Its AC50 was inactive

So, "CS(=O)(=O)c1cc(C(F)(F)F)ccc1C(=O)c1cnoc1C1CC1" ? Its AC50 was inactive
